Cited source: the Human Domainome abundance scans (Beltran et al. 2025)

B1: Transcription factor SOX-4, residues 60 to 127; numbered along this chain, Q06945 (parent)
chain: KRPMNAFMVWSQIERRKIMEQSPDMHNAEISKRLGKRWKLLKDSDKIPFIREAERLRLKHMADYPDYK

# Variants of: B1
# method_notes: abundance fitness (aPCA) (normalised: wild type 0, dead -1); higher = more abundant; growth selection in yeast, the domain comes from the species named
# test_context: Homo sapiens
Note to self: values exactly at -0.2 are true (1). So abundance fitness at or above -0.2 is true (1), below is false (0).

- P65E: true (1)
- E29T: false (0)
- L41A: false (0)
- S44A: true (1)
- E54C: false (0)
- I47W: false (0)
- E29M: false (0)
- F49T: false (0)
- P65I: false (0)
- D24R: false (0)
- R57F: true (1)
- E52G: false (0)
- L40I: false (0)
- L56P: false (0)
- L56C: false (0)
- K32G: false (0)
- K46S: false (0)
- D24L: false (0)
- K36F: true (1)
- N27H: true (1)
- D45Y: false (0)
- K59D: true (1)
- R55G: false (0)
- D66T: false (0)
- P23V: false (0)
- A53P: false (0)
- I50Y: true (1)
- Q21I: true (1)
- L56Y: false (0)
- A53Q: false (0)
- K46I: false (0)
- A53S: false (0)
- Y64S: true (1)
- D43Q: false (0)
- M61N: true (1)
- K36H: true (1)
- K46Q: false (0)
- A62V: true (1)
- F49S: false (0)
- K59W: false (0)
- I30M: false (0)
- L56D: false (0)
- L56V: false (0)
- A28E: true (1)
- G35V: true (1)
- H60V: true (1)
- I47C: false (0)
- D24W: true (1)
- A62D: true (1)
- I50T: false (0)
- D24S: true (1)
- Y67E: true (1)
- S44N: false (0)
- L58Q: true (1)
- P23R: false (0)
- D43M: true (1)
- K32A: true (1)
- W38N: false (0)
- L34F: false (0)
- S22R: false (0)
- S44Q: true (1)
- P23D: false (0)
- S44V: true (1)
- D43K: false (0)
- E52M: false (0)
- L58Y: false (0)
- A62F: false (0)
- K46R: false (0)
- D45M: false (0)
- H26V: true (1)
- Y67L: true (1)
- L56K: true (1)
- K39M: true (1)
- K59L: true (1)
- N27V: true (1)
- E29H: false (0)
- S22D: true (1)
- D63L: false (0)
- A62W: false (0)
- K39F: false (0)
- W38E: false (0)
- D45A: false (0)
- R55P: false (0)
- Y67T: true (1)
- K39I: false (0)
- D24M: false (0)
- M25G: false (0)
- D45T: false (0)
- E52C: false (0)
- K42S: true (1)
